# ASSAY: osmotic lysis modulators in infected erythrocytes, primary screen, PSAC antagonist project, cell-based, P. falciparum Indochina, OD700, 3 h (AID 1156)
# APPLIED CONDITIONS: higher = more signal, called active from +8 up or from −8 down
Could you please report measured z-score for the items listed next?
Give the value as a plain number.

Any idea what its z-score is? The compound is COC(=O)[C@@]1(Cc2ccc(F)cc2)[C@@H]2[C@@H](CC(=O)[C@H]2CC(=O)C(=O)N(C)C)CN1C(=O)c1ccccc1
0.806

Look at this compound and give its reported z-score. CC(C)c1ccc(NN2C(C(O)C(c3ccccc3)c3ccccc3)C=CC3C(=O)N(c4ccccc4)C(=O)C32)cc1 (centres undefined)
0.771

Quick check: z-score of C#CCNC(=O)[C@H](Cc1ccccc1)NC(=O)CCC(=O)O ?
-0.707

Which z-score is reported for this compound? C=CCOC(=O)[C@@H]1[C@H]2C(=O)O[C@H](c3ccccc3)[C@H](c3ccccc3)N2[C@H](c2ccc(OCCOC(=O)[C@@H]3C[C@@H]4C(=O)N[C@@H](Cc5ccccc5)C(=O)N4[C@@H]3c3ccc(O)cc3)cc2)[C@@]12C(=O)Nc1ccc(I)cc12
5.01

* * *

# SYSTEM NAME: Homeobox protein Hox-A13 (Mus musculus) (UniProt Q62424)
# Sequence (Q62424 whole entry, looked up): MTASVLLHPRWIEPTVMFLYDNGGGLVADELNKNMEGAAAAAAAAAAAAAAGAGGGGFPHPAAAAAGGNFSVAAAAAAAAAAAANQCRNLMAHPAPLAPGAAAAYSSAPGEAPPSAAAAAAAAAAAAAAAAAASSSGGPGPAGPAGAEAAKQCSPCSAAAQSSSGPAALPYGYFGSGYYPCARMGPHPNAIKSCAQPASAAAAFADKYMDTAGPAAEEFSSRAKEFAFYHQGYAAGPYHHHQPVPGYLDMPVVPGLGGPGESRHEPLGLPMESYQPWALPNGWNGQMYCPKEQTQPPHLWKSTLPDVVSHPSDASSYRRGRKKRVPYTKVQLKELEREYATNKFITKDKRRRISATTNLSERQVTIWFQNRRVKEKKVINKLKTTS
# ASSAY: inhibitors of HoxA13-DNA binding, primary screen, biochemical, fluorescence polarization, labeled oligonucleotide (AID 1185)
# APPLIED CONDITIONS: 15 min, higher = more signal, called active from +8 up or from −8 down
Calls of active or inactive are those of the source.
MEASURE: z-score

Param readout= z-score; system= Homeobox protein Hox-A13 (Mus musculus) (UniProt Q62424); entry= CN1C(=O)C2C=CC(C(O)c3cc(C(F)(F)F)cc(C(F)(F)F)c3)N(N3CCCCC3)C2C1=O (centres undefined) ; returns value.
-4.54 (inactive)

Request - read-out z-score | tested on Homeobox protein Hox-A13 (Mus musculus) (UniProt Q62424) | molecule C=CCN1C(=O)[C@@]2(O[C@@H](CCO)[C@H]([Si](C)(C)c3ccc(OC)cc3)[C@H]2C)c2cc(NC(=O)c3ccc(OC)cc3)ccc21
-4.58 (inactive)

Requested read-out z-score, target or system Homeobox protein Hox-A13 (Mus musculus) (UniProt Q62424), entry C=CC[C@@]1(C(N)=O)N=C(c2ccc(OCCCO)cc2)O[C@@H]1c1ccccc1CN=[N+]=[N-]
-3.93 (inactive)

Reported z-score for Homeobox protein Hox-A13 (Mus musculus) (UniProt Q62424), given CO[C@H]1O[C@H](CO)[C@@H](OC(=O)Nc2ccc(Br)cc2)[C@H](OC(=O)c2cc3ccccc3[nH]2)[C@H]1OC(=O)c1cc2ccccc2[nH]1 ?
-2.09 (inactive)

Write down the reported z-score of C=C(C)C1C(=C)CN([C@H](CO)c2ccccc2)C1=O (some centres undefined) , test system: Homeobox protein Hox-A13 (Mus musculus) (UniProt Q62424).
-2.61 (inactive)

What measured z-score is associated with [N-]=[N+]=Nc1ccccc1C[C@]1(C(N)=O)N=C(c2ccc(OCCCO)cc2)O[C@H]1c1ccccc1 on Homeobox protein Hox-A13 (Mus musculus) (UniProt Q62424)?
-7.09 (inactive)

Record O=C1[C@H]2C=C(Br)[C@H](C[C@@H]2c2ccccc2)[C@@]12CO2 : what is its z-score with Homeobox protein Hox-A13 (Mus musculus) (UniProt Q62424)?
-1.29 (inactive)

Fill in the recorded z-score for this molecule, with Homeobox protein Hox-A13 (Mus musculus) (UniProt Q62424) as test system: C=CC[C@]1(C(=O)NCCCOC)N=C(c2ccc(OCCCO)cc2)O[C@H]1c1ccccc1N=[N+]=[N-]
-3.07 (inactive)

// fetch Homeobox protein Hox-A13 (Mus musculus) (UniProt Q62424) z-score for C=C(CCCC)C(=O)CC[C@@H](OC(=O)c1cccnc1)c1ccc(CO)o1
-4.35 (inactive)

Give z-score (Homeobox protein Hox-A13 (Mus musculus) (UniProt Q62424)) of the following molecule: CC(C)N1C(=O)c2ccccc2[C@](C)(C(=O)NCc2ccccc2)[C@@H]1c1ccc(CO)cc1
-1.51 (inactive)

What reported z-score corresponds to OC([C@@H]1CC(c2ccccc2)=NO1)[C@H]1CC(c2ccccc2)=NO1 (some centres undefined) on Homeobox protein Hox-A13 (Mus musculus) (UniProt Q62424)?
-0.163 (inactive)

z-score of COc1cc2c(cc1OC)CN(C(=O)[C@H]1[C@@H]3C(=O)O[C@@H](c4ccccc4)[C@@H](c4ccccc4)N3[C@@H](c3ccc(O)cc3)[C@]13C(=O)Nc1ccc(C#CCNC(N)=O)cc13)CC2 on Homeobox protein Hox-A13 (Mus musculus) (UniProt Q62424)?
-1.24 (inactive)

Given the entry C=CCN1C(=O)[C@]2(O[C@H](CCO)[C@@H]([Si](C)(C)c3ccc(OC)cc3)[C@@H]2C)c2cc(N3CCCCC3=O)ccc21 , what z-score was observed with Homeobox protein Hox-A13 (Mus musculus) (UniProt Q62424)?
-6.28 (inactive)

// lookup z-score | system=Homeobox protein Hox-A13 (Mus musculus) (UniProt Q62424) | key= COCC(=C=CC[C@@H](O)c1ccccc1OCCO)C[C@@H](O)c1cc(Cl)cc(Cl)c1O
-3.71 (inactive)

Query for Homeobox protein Hox-A13 (Mus musculus) (UniProt Q62424): what z-score does the record show for CC[C@@H]1C=C(C(=O)O)[C@H](c2ccco2)N1S(=O)(=O)c1ccc(C)cc1 ?
-4.78 (inactive)

Item C=CCOC(=O)[C@H]1[C@@H]2C(=O)O[C@@H](c3ccccc3)[C@@H](c3ccccc3)N2[C@@H](c2ccc(OCCOC(=O)[C@@H]3C[C@@H]4C(=O)N[C@@H](CCCCN(C)C)C(=O)N4[C@@H]3c3ccc(O)cc3)cc2)[C@]12C(=O)Nc1ccc(I)cc12 with Homeobox protein Hox-A13 (Mus musculus) (UniProt Q62424) - z-score?
6.34 (inactive)

Lab note: need z-score for O=C1OCCC/C=C\[C@H]2OC34C=CCN(Cn5nnc6ccccc65)C(=O)[C@H]3N(CCO)C(=O)[C@@H]4C12 (some centres undefined) on Homeobox protein Hox-A13 (Mus musculus) (UniProt Q62424), anyone have it?
-4.72 (inactive)

Reported z-score for Homeobox protein Hox-A13 (Mus musculus) (UniProt Q62424), given COCCOC(=O)N1C(=O)[C@@]2(c3cc(C#CC4=CCCCC4)ccc31)[C@H](C(=O)Nc1nc3ccccc3s1)[C@H]1C(=O)O[C@H](c3ccccc3)[C@H](c3ccccc3)N1[C@@H]2c1ccccc1OCCO ?
1.67 (inactive)

# value lookup — system Homeobox protein Hox-A13 (Mus musculus) (UniProt Q62424), readout z-score, item COC(=O)[C@@]1(Cc2ccccc2)[C@H]2c3cc(C(=O)N(C)C)n(CCSCCO)c3C[C@H]2CN1C(=O)c1ccccc1
-4.76 (inactive)

So what z-score did CCCN1C(=O)[C@]2(CCS(=O)(=O)c3ccccc3)N=C(c3ccc(OCCCO)cc3)O[C@@H]2c2ccccc21 get with Homeobox protein Hox-A13 (Mus musculus) (UniProt Q62424)?
-5.36 (inactive)

Value wanted: z-score (Homeobox protein Hox-A13 (Mus musculus) (UniProt Q62424)) of entry COc1ccc([Si](C)(C)[C@@H]2[C@@H](CC(=O)N3Cc4ccccc4C[C@H]3CO)O[C@]3(C(=O)N(C)c4c(Br)cc(C)cc43)[C@H]2C)cc1
-4.06 (inactive)

Hello, I am looking for reported z-score with Homeobox protein Hox-A13 (Mus musculus) (UniProt Q62424) for COc1ccc([C@H]2OC[C@@H]3CC4(CC=CC4)C(=O)N32)cc1 . Could you help?
-0.0645 (inactive)

Lab note: need z-score with Homeobox protein Hox-A13 (Mus musculus) (UniProt Q62424) for entry COC(=O)[C@@]1(Cc2ccc(F)cc2)[C@H]2c3cc(C(=O)N(C)C)n(Cc4nc5ccccc5[nH]4)c3C[C@H]2CN1C(=O)c1ccccc1 , please look it up.
-3.68 (inactive)

Field: z-score (Homeobox protein Hox-A13 (Mus musculus) (UniProt Q62424)). Entry: CCCC[C@@H]1C[C@H]1[C@@H](NC(=O)c1ccco1)c1ccc(C(=O)OC)cc1
0.198 (inactive)

Quick check: z-score on Homeobox protein Hox-A13 (Mus musculus) (UniProt Q62424), item C=CCN1C(=O)[C@]2(O[C@H](CCO)[C@@H]([Si](C)(C)c3ccc(OC)cc3)[C@@H]2C)c2cc(N3C(=O)c4cccc5cccc3c45)ccc21 ?
-3.37 (inactive)

What measured z-score is associated with [N-]=[N+]=NCc1ccccc1[C@H]1OC(c2ccc(OCCCO)cc2)=N[C@@]1(Cc1ccccc1)C(=O)NCc1ccccc1 on Homeobox protein Hox-A13 (Mus musculus) (UniProt Q62424)?
2.55 (inactive)

Field: z-score (Homeobox protein Hox-A13 (Mus musculus) (UniProt Q62424)). Entry: COc1ccc(C(=O)Nc2cccc(CN3C(=O)[C@]4(O[C@H](CCO)[C@@H]([Si](C)(C)c5ccc(OC)cc5)[C@@H]4C)c4ccccc43)c2)cc1
-2.45 (inactive)

// lookup z-score | system=Homeobox protein Hox-A13 (Mus musculus) (UniProt Q62424) | key= C#CCN(Cc1ccccc1Br)C(/C=C/c1ccccc1)CO (centres undefined)
-6.39 (inactive)

z-score of COCCOC(=O)N1C(=O)[C@@]2(c3cc(C#CC4(O)CCCCCC4)ccc31)[C@H](c1ccc(O)cc1)N1[C@H](c3ccccc3)[C@H](c3ccccc3)OC(=O)[C@H]1[C@@H]2C(=O)Nc1nc2ccccc2s1 on Homeobox protein Hox-A13 (Mus musculus) (UniProt Q62424)?
-1.3 (inactive)
